- Tested on: HIV-1 7396 (41L/67N/69N/70R/215F)
- TEST DESCRIPTION: Antiviral activity on resistant variant, TZM-bl F-Luc
- Type: cell-based
- CONDITION NOTES: Human immunodeficiency virus 1, TZM-bl
As shown below, each of these molecules has a reported pEC50 value.
Field pEC50 (float): negative decimal logarithm of the concentration in molar.

Example molecules with recorded pEC50:
**Query** pEC50 of Cc1cn([C@H]2C[C@H](N=[N+]=[N-])[C@@H](CO)O2)c(=O)[nH]c1=O [AZT, zidovudine] on HIV-1 7396 (41L/67N/69N/70R/215F)?
**Result** 5.42

**Query** pEC50 of Cc1ccnc2c1NC(=O)c1cccnc1N2C1CC1 [NVP, nevirapine] on HIV-1 7396 (41L/67N/69N/70R/215F)?
**Result** 6.46

Now look at this entry.
**Query** pEC50 of O=C1Nc2ccc(Cl)cc2[C@@](C#CC2CC2)(C(F)(F)F)O1 [EFV, efavirenz] on HIV-1 7396 (41L/67N/69N/70R/215F)?
**Result** 9.00

====

- System: HIV-1 G190C
- TEST DESCRIPTION: Antiviral activity on single RT mutant, TZM-bl F-Luc
- Type: cell-based
- CONDITION NOTES: Human immunodeficiency virus 1, TZM-bl
As shown below, each of these molecules has a reported EC50 value.
# number only, unit nM dropped from output

Example molecules with recorded EC50:
**Query** EC50 for O=C1Nc2ccc(Cl)cc2[C@@](C#CC2CC2)(C(F)(F)F)O1 [EFV, efavirenz] ?
**Result** 390

**Query** EC50 for Cc1nn(C(C)c2nnc(Nc3ccn(Cc4ccccc4)n3)s2)c(C)c1Br (stereo not shown) [BPPT] ?
**Result** 290

New cases:
**Query** EC50 for Cc1ccnc2c1NC(=O)c1cccnc1N2C1CC1 [NVP, nevirapine] ?
**Result** 23800

**Query** EC50 for Cc1cn([C@H]2C[C@H](N=[N+]=[N-])[C@@H](CO)O2)c(=O)[nH]c1=O [AZT, zidovudine] ?
**Result** 50

====

- System: HIV-1 L100I
- TEST DESCRIPTION: Antiviral activity on single RT mutant, TZM-bl F-Luc
- Format: cell-based
- CONDITION NOTES: Human immunodeficiency virus 1, TZM-bl
READOUT TYPE: pEC50
Field pEC50 (float): negative decimal logarithm of the concentration in molar.

Example compounds with recorded pEC50:
**Query** pEC50 for Cc1ccnc2c1NC(=O)c1cccnc1N2C1CC1 [NVP, nevirapine] ?
**Result** 6.74

**Query** pEC50 for O=C1Nc2ccc(Cl)cc2[C@@](C#CC2CC2)(C(F)(F)F)O1 [EFV, efavirenz] ?
**Result** 7.70

**Query** pEC50 for Cc1nn(C(C)c2nnc(Nc3ccn(Cc4ccccc4)n3)s2)c(C)c1Br (stereo not shown) [BPPT] ?
**Result** 5.46

New cases:
**Query** pEC50 for Cc1cn([C@H]2C[C@H](N=[N+]=[N-])[C@@H](CO)O2)c(=O)[nH]c1=O [AZT, zidovudine] ?
**Result** 7.15

====

- TEST DESCRIPTION: Cell viability test
- Assay type: cell-based
- CONDITION NOTES: human, PBMCs
READOUT TYPE: CC50

**Query** CC50 for Cc1nn(C(C)c2nnc(Nc3ccn(Cc4ccccc4)n3)s2)c(C)c1Br (stereo not shown) [BPPT] ?
**Result** > 50 µM
